- studySystem: P2X7 receptor (Homo sapiens)
- Sequence (Q99572 1-595): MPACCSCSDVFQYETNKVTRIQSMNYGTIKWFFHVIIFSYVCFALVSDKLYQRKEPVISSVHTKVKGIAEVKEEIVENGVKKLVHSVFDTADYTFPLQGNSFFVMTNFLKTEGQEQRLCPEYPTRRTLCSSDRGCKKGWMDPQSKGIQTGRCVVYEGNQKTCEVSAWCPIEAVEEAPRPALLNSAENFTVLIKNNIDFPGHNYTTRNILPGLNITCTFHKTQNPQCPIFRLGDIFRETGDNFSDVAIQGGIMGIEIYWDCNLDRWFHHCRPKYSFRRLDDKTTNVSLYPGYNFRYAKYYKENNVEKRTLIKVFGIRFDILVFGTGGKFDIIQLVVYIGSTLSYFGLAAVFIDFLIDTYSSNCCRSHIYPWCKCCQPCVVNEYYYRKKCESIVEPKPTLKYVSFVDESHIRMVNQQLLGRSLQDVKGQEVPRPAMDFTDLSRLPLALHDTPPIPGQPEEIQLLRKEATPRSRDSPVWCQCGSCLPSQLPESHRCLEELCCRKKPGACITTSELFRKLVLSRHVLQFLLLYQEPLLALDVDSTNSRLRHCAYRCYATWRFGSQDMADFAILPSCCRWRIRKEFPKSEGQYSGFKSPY
- assayInfo: IL-1β release assay in differentiated THP-1 cells stimulated with BzATP (Example 9); % inhibition and IC50
- conditions: THP-1 cells differentiated with LPS and IFN-γ, 30 min pretreatment, BzATP 250 uM, IL-1β by ELISA
- Protocol: The cells are then pretreated for 30 minutes with the compound of interest at the appropriate concentration in RPMI media containing 100 IU/mL penicillin, 100 ug/mL streptomycin. […] 30 uL of cell supernatant is then collected and IL-1β levels determined via ELISA (R&D systems Cat. # HSLB50) according to manufacturer's recommendations using the Tecan Safire plate reader. Background adjusted IL-1β levels of drug treated and non-treated cells are used to calculate the percent inhibition. […]
pIC50: −log10 of the molar value.
measuredQuantity: pIC50

structure: CC(C)[C@H](C(=O)NC1CC1)n1ccc2c(NC(=O)[C@H](C)c3ccc(Cl)cc3)cccc2c1=O
pIC50: 7.47

a: O=C(Cc1ccc(C(F)(F)F)cc1C(F)(F)F)Nc1cccc2c(=O)n(C(CO)CO)ccc12
b: O=C(Cc1ccc(Cl)c(Cl)c1)Nc1cccc2c(=O)n(CCO)ccc12
input: Consider entries a and b . Which has the numerically lower pIC50? # reply format: chosen label
output: a
(a: 6.41, b: 7.52)

1: C[C@H](C(N)=O)n1ccc2c(NC(=O)Cc3ccccc3Cl)cccc2c1=O
2: C[C@H](C(N)=O)n1ccc2c(NC(=O)Cc3cccc(C(F)(F)F)c3)cccc2c1=O
3: O=C(Nc1cccc2c(=O)n(CCO)ccc12)c1ccc(C(F)(F)F)cc1C(F)(F)F
4: C[C@@H](C(=O)Nc1cccc2c(=O)n([C@@H](C)C(N)=O)ccc12)c1ccc(Cl)cc1
input: Please rank these compounds by pIC50 in descending order. Put the labels in the order asked and list them.
output: 2, 4, 3, 1
(2: 7.78, 4: 7.41, 3: 6.51, 1: 6.16)
